molecular target: T1, Her2 on cells (BT474, high expression; MDA-MB-231, low expression) (UniProt P04626 23-1255, limits assumed); assay: flow cytometry on BT474 cells (high Her2), anti-HA Alexa Fluor488; also: test concentration or dose not given here
T1 construct: whole, on cells; Endogenous Her2 of tumour cell lines
positive rate values by entry
Write it as a number; the unit % goes unstated.

Reference set, count: 6
[
  {
    "binder": "Nanobody No. 13 (VHH, camel VHH from pMECs phage display vector; also called Antibody no; 13; not shown: tags (HA, His) implied by anti-HA detection and nickel column) VHH: QVQLQESGGGSVQAGETLRLSCTASGFTFDDSDMGWYRQAPGNECELVSTISADGSTFYADSVKGRFTISQDNAKNTVYLQMNSLKPEDTAVYYCASPENEYELGTCEALDYWGQGTQVTVSS",
    "unit_of_measurement": "%",
    "positive rate": 99.9
  },
  {
    "binder": "Nanobody No. 26 (VHH, camel VHH from pMECs phage display vector; also called Antibody no; 26; not shown: tags (HA, His) implied by anti-HA detection and nickel column) VHH: QVQLQESGGGSVQAGETLRLSCTASGFTFDDSDMGWYRQAPGNECELVSSISSDGSTYYADSVKGRFTISQDNAKNTVYLQMNSLKPEDTGVYYCAAEGHRYELGTCAALDYWGRGTQVTVSS",
    "unit_of_measurement": "%",
    "positive rate": 99.9
  },
  {
    "binder": "Nanobody No. 17 (VHH, camel VHH from pMECs phage display vector; also called Antibody no; 17; not shown: tags (HA, His) implied by anti-HA detection and nickel column) VHH: QVQLQESGGGSVQAGGSLRLSCTASGFTFDDSDMGWYRQAPGNECELVSTISSDGSTYYADSVKGRFTISQDNAKNTVYLQMNSLKPEDTAVYYCADVQIPYGLGTCESLDYWGRGTQVTVSS",
    "unit_of_measurement": "%",
    "positive rate": 99.9
  },
  {
    "binder": "Nanobody No. 10 (VHH, camel VHH from pMECs phage display vector; also called Antibody no; 10; not shown: tags (HA, His) implied by anti-HA detection and nickel column) VHH: QVQLQESGGGSVQAGETLKLSCTASGFTFDDSTMAWYRQAPGNECKLVSTISSDGSTYYADSVKGRFTISQDNAKNTVYLQMNSLKPEDTAVYYCAADDQNYELGTCEALDYWGRGTQVTVSS",
    "unit_of_measurement": "%",
    "positive rate": 99.7
  },
  {
    "binder": "Nanobody No. 23 (VHH, camel VHH from pMECs phage display vector; also called Antibody no; 23; not shown: tags (HA, His) implied by anti-HA detection and nickel column) VHH: QVQLQESGGGSVQAGGSLKLSCSASGFTFDDTDMGWYRQAPGNECELVSTISSDGTTYYTDSVKGRFTISQDNAKNTVYLQMNSLKPEDTAVYYCAAINSGYELGTCESLDYWGRGTQVTVSS",
    "unit_of_measurement": "%",
    "positive rate": 99.9
  },
  {
    "binder": "Nanobody No. 9 (VHH, camel VHH from pMECs phage display vector; also called Antibody no; not shown: tags (HA, His) implied by anti-HA detection and nickel column) VHH: QVQLQESGGGSVQAGETLRLSCTASGFTFDDSDMGWYRQAPGSECELVSTISSDGNTYYSNSVKGRFTISQDNAKNTVYLQMNSLKPEDTAVYYCAADDQHYELGTCEALDYWGRGTQVTVSS",
    "unit_of_measurement": "%",
    "positive rate": 99.8
  }
]

// switching to the query binder
Problem: Determine its reported positive rate: Nanobody No. 22 (VHH, camel VHH from pMECs phage display vector; also called Antibody no; 22; not shown: tags (HA, His) implied by anti-HA detection and nickel column) VHH: QVQLQESGGGSVQAGGSLRLSCTASGFTFDDSDMGWYRQAPGNECELVSRISRDGTTYYADSVKGRFTISQDNAKNTVYLQMNSLKPEDTAVYYCADINSGYELGTCESLDYWGRGTQVTVSS
Result: 99.7

Provenance of the data: patent US20230263916A1
